- assayTarget: human TAAR1 receptor (Homo sapiens (Human), UniProt Q96RJ0)
- Sequence (Q96RJ0 whole entry): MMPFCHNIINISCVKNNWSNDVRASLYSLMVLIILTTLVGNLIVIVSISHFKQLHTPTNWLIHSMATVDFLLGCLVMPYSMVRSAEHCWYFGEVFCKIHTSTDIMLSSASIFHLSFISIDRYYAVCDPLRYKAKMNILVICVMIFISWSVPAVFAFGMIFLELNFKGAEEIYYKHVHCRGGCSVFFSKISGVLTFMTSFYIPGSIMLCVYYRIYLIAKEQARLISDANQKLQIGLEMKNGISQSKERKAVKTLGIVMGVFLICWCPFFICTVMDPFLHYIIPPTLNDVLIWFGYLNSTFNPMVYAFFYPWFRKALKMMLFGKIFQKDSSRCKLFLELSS
- measurementProtocol: Evaluation of agonist activity on human TAAR1 receptor (cAMP assay)
- Assay type: cell-based
- experimentalContext: CHO, 0.5 h, 10000 nM; cAMP in human TAAR1-expressing CHO cells; relative to 100 μM tyramine; read-out: TAAR1 agonist activity at each concentration (%)
Structures can show the parent of a compound that is named as a salt.
Each entry below carries its reported activation at 10 µM.

# compound, unitsText, activation at 10 µM
records = [
    ("CNC[C@H]1c2ncccc2O[C@@H]1C [Example 46, dihydrochloride]", "%", 80),
    ("Cc1ccc2c(n1)C(CN)CS2 (stereo not shown)", "%", 79),
    ("[2H][C@]1(C)Oc2cccnc2[C@@H]1CN (stereo in doubt)", "%", 79),
    ("Cc1cc(C)c2c(n1)[C@H](CN)[C@@H](C)O2", "%", 79),
]

====

- assayTarget: human TAAR1 receptor (Homo sapiens (Human))
- measurementProtocol: Evaluation of agonist activity on human TAAR1 receptor (cAMP assay)
- Type: cell-based
- experimentalContext: CHO, 0.5 h, 1000 nM; cAMP in human TAAR1-expressing CHO cells; relative to 100 μM tyramine; read-out: TAAR1 agonist activity at each concentration (%)
- Protocol: TAAR1 is a G protein-coupled receptor that binds to G proteins (Gas), and activation of the TAAR1 receptor by agonists induces an increase in intracellular cAMP levels. Therefore, the agonist activity of the sample on the human TAAR1 receptor was evaluated using the cAMP assay method. cAMP Hunter™ CHO-K1 TAAR1 Gs Cell Line, a cell expressing human TAAR1 receptor, was purchased. […]
Counter-ions that a name gives are not always drawn.
recordedEndpoint: activation at 1 µM

# compound, result
data = [
    ("NC[C@H]1c2ncccc2O[C@H]2CCCC[C@@H]21 (racemic) [Example 33, dihydrochloride]", "22%"),
    ("Cc1ccc2c(n1)C(CN)C(C)(C)O2 (stereo not shown) [Example 83]", "91%"),
    ("CC[C@@H]1COc2cccnc2[C@@H]1CN (racemic) [Example 87]", "25%"),
    ("Cc1ccc2c(n1)[C@H](CN)[C@@H](C)O2 [Example 35]", "82%"),
]

====

- assayTarget: human TAAR1 receptor (Homo sapiens (Human))
- measurementProtocol: Evaluation of agonist activity on human TAAR1 receptor (cAMP assay)
- Format: cell-based
- experimentalContext: CHO, 0.5 h, 10000 nM; cAMP in human TAAR1-expressing CHO cells; relative to 100 μM tyramine; read-out: TAAR1 agonist activity at each concentration (%)
Where a name gives a salt, the structure may show the parent alone.
Each entry below carries its reported activation at 10 µM.
recordedEndpoint: activation at 10 µM

# molecule, assayTarget, result
measured = [
    ("Cc1ccc2c(n1)[C@H](CN)C1(CC1)O2 (single isomer, unassigned) [Example 101, dihydrochloride]", "human TAAR1 receptor (Homo sapiens (Human))", "84%"),
    ("C[C@@H]1C[C@@H](CN)c2ncc(F)cc2O1 [Example 66]", "human TAAR1 receptor (Homo sapiens (Human))", "82%"),
    ("C[C@@H]1COc2cccnc2[C@@H]1CN (stereo in doubt) [Example 4, dihydrochloride]", "human TAAR1 receptor (Homo sapiens (Human))", "67%"),
    ("CNCC1CC(C)c2cccnc21 (centres unmarked) [Example 78]", "human TAAR1 receptor (Homo sapiens (Human))", "27%"),
    ("NC[C@@H]1CSc2cccnc21 (single isomer, unassigned) [Example 42, dihydrochloride]", "human TAAR1 receptor (Homo sapiens (Human))", "90%"),
    ("NC[C@H]1c2nc(F)ccc2OC12CC2 (single isomer, unassigned) [Example 103, dihydrobromide]", "human TAAR1 receptor (Homo sapiens (Human))", "89%"),
    ("C[C@H]1Sc2cccnc2[C@@H]1CN (racemic) [Example 15]", "human TAAR1 receptor (Homo sapiens (Human))", "90%"),
    ("C[C@H]1Oc2cc(F)cnc2[C@@H]1CN [Example 8, dihydrochloride]", "human TAAR1 receptor (Homo sapiens (Human))", "75%"),
    ("C[C@@H]1Oc2cccnc2[C@@H]1CN [Example 20]", "human TAAR1 receptor (Homo sapiens (Human))", "107%"),
    ("NC[C@H]1C[C@@H](c2ccccc2)Oc2cccnc21 (racemic) [Example 24]", "human TAAR1 receptor (Homo sapiens (Human))", "101%"),
    ("C[C@@H]1COc2cccnc2[C@@H]1CN (stereo in doubt) [Example 2, dihydrochloride]", "human TAAR1 receptor (Homo sapiens (Human))", "75%"),
    ("C[C@@H]1Oc2cccnc2[C@H]1CN [Example 19]", "human TAAR1 receptor (Homo sapiens (Human))", "51%"),
    ("CC1(C)Oc2cccnc2C1CN (centres unmarked) [Example 23]", "human TAAR1 receptor (Homo sapiens (Human))", "91%"),
    ("CC1CCC(CN)c2ncccc21 (centres unmarked) [Example 77]", "human TAAR1 receptor (Homo sapiens (Human))", "47%"),
]

====

- assayTarget: human TAAR1 receptor (Homo sapiens (Human), UniProt Q96RJ0)
- measurementProtocol: Evaluation of agonist activity on human TAAR1 receptor (cAMP assay)
- Type: cell-based
- experimentalContext: CHO, 0.5 h, 10000 nM; cAMP in human TAAR1-expressing CHO cells; relative to 100 μM tyramine; read-out: TAAR1 agonist activity at each concentration (%)
Where a name gives a salt, the structure may show the parent alone.
Everything with activation at 10 µM lower than 80% is condition not met; everything else, including exactly 80%, is condition met.

# compound, class
records = [
    ("C[C@H]1Oc2c(F)ccnc2[C@@H]1CN [Example 59]", "condition met"),
    ("Cc1ccnc2c1OCCC2CN (centres unmarked) [Example 70]", "condition not met"),
    ("C[C@H]1COc2cccnc2[C@@H]1CN (racemic) [Example 1, dihydrochloride]", "condition not met"),
    ("CC[C@H]1Oc2cccnc2[C@@H]1CN (stereo in doubt) [Example 22]", "condition met"),
    ("C[C@H]1Oc2cccnc2[C@H]1CN (racemic) [Example 36, dihydrochloride]", "condition not met"),
    ("NCC1c2nc(Cl)ccc2OC12CC2 (centres unmarked) [Example 81]", "condition met"),
    ("C[C@@H]1[C@H](C)Oc2cccnc2[C@H]1CN (racemic) [Example 65]", "condition not met"),
    ("NC[C@H]1c2ncccc2OC12CC2 (single isomer, unassigned) [Example 97, dihydrochloride]", "condition met"),
    ("C[C@H]1Oc2cc(C(F)(F)F)cnc2[C@@H]1CN [Example 31]", "condition not met"),
    ("C[C@H]1Oc2ccc(F)nc2[C@@H]1CN [Example 29]", "condition met"),
    ("CNC[C@@H]1C[C@@H](C)Oc2cccnc21 (racemic) [Example 7]", "condition not met"),
    ("Cc1ccc2c(n1)[C@@H](CN)C(C)(C)O2 (single isomer, unassigned) [Example 104, dihydrochloride]", "condition not met"),
]

====

- assayTarget: human TAAR1 receptor (Homo sapiens (Human), UniProt Q96RJ0)
- measurementProtocol: Evaluation of agonist activity on human TAAR1 receptor (cAMP assay)
- Type: cell-based
- experimentalContext: CHO, 0.5 h, 1000 nM; cAMP in human TAAR1-expressing CHO cells; relative to 100 μM tyramine; read-out: TAAR1 agonist activity at each concentration (%)
Structures can show the parent of a compound that is named as a salt.
Each entry below carries its reported activation at 1 µM.

# compound, assayTarget, unitsText, activation at 1 µM
data = [
    ("Cc1cnc2c(c1)O[C@H](C)[C@H]2CN", "human TAAR1 receptor (Homo sapiens (Human), UniProt Q96RJ0)", "%", 38),
    ("NC[C@@H]1c2nc(F)ccc2OC12CC2 (single isomer, unassigned) [Example 102, dihydrobromide]", "human TAAR1 receptor (Homo sapiens (Human), UniProt Q96RJ0)", "%", 18),
    ("Cc1ccc2c(n1)[C@@H](CN)C(C)(C)O2 (single isomer, unassigned) [Example 104, dihydrochloride]", "human TAAR1 receptor (Homo sapiens (Human), UniProt Q96RJ0)", "%", 5),
    ("NCC1CCNc2cccnc21 (stereo not shown)", "human TAAR1 receptor (Homo sapiens (Human), UniProt Q96RJ0)", "%", 23),
    ("NC[C@@H]1CSc2cccnc21 (single isomer, unassigned) [Example 42, dihydrochloride]", "human TAAR1 receptor (Homo sapiens (Human), UniProt Q96RJ0)", "%", 70),
    ("C[C@@H]1Oc2cccnc2[C@@H]1CN", "human TAAR1 receptor (Homo sapiens (Human), UniProt Q96RJ0)", "%", 88),
    ("CNCC1CC(C)c2cccnc21 (stereo not shown)", "human TAAR1 receptor (Homo sapiens (Human), UniProt Q96RJ0)", "%", 5),
    ("C[C@@H]1COc2cccnc2[C@@H]1CN (stereo in doubt) [Example 4, dihydrochloride]", "human TAAR1 receptor (Homo sapiens (Human), UniProt Q96RJ0)", "%", 55),
    ("C[C@@H]1C[C@H](CN)c2ncc(F)cc2O1", "human TAAR1 receptor (Homo sapiens (Human), UniProt Q96RJ0)", "%", 8),
    ("CC[C@@H]1C[C@H](CN)c2ncccc2O1 (racemic)", "human TAAR1 receptor (Homo sapiens (Human), UniProt Q96RJ0)", "%", 40),
    ("Cc1ccc(-c2ccnc3c2CCCC3CN)cc1 (racemic) [Example 89, dihydrochloride]", "human TAAR1 receptor (Homo sapiens (Human), UniProt Q96RJ0)", "%", 23),
    ("CC1CCC(CN)c2ncccc21 (stereo not shown)", "human TAAR1 receptor (Homo sapiens (Human), UniProt Q96RJ0)", "%", 11),
    ("C[C@H]1Oc2cc(C(F)(F)F)cnc2[C@@H]1CN", "human TAAR1 receptor (Homo sapiens (Human), UniProt Q96RJ0)", "%", 3),
]
